# assay-protocol: Rat pharmacokinetics and brain penetration (IV and PO)
# Type: in vivo
# stated-conditions: male, SD; Rat brain, 3 mg/kg IV; 10 mg/kg PO; read-out: AUClast (b)
readout-kind: AUC(0-t) (ng·h/mL)

Use these answered entries as a reference point.
CN1CCN(c2cccc3nc([C@H]4CCC[C@@H](c5ncccc5Cl)N4)cn23)CC1 (racemic) [Compound I-149]	3820
CN1CCN(c2cccc3nc([C@H]4CCC[C@@H](c5ncccc5Cl)N4)cn23)CC1 (single isomer, unassigned) [Compound I-188]	4470

1 = Cc1cccnc1[C@@H]1CCC[C@H](c2nc3cccc(N4CCN(C)CC4)n3c2Cl)N1
2 = CN1CCN(c2cccc3nc([C@@H]4CCC[C@H](c5ncccc5Cl)N4)cn23)CC1 (single isomer, unassigned)
Which is greater in AUC(0-t), the first item 1 or the second item 2 ? Give the label of your selection.
1
(1: 7800 ng·h/mL, 2: 2300 ng·h/mL)

---

# assay-protocol: Pharmacokinetics after intravenous or oral administration to dogs
# Type: in vivo
# stated-conditions: male, beagle, plasma; dog, PO: 10 mg/kg
readout-kind: half-life (h)
Give the number; h is assumed, so skip it.

Tell me the measured half-life of CN1CCN(c2cccc3nc([C@H]4CCC[C@@H](c5ncccc5Cl)N4)cn23)CC1 (single isomer, unassigned) , please.
23.2

---

# assay-protocol: Rat pharmacokinetics and brain penetration (IV and PO)
# Format: in vivo
# stated-conditions: male, SD, brain and plasma; Rat, 3 mg/kg IV; 10 mg/kg PO; read-out: Kp, uu (unbound brain/unbound plasma drug concentration ratio)
readout-kind: Kp uu

Use these answered entries as a reference point.
CN1CCN(c2cccc3nc([C@H]4CCC[C@@H](c5ncccc5Cl)N4)cn23)CC1 (single isomer, unassigned) [Compound I-188]	1.04
CN1CCN(c2cccc3nc([C@H]4CCC[C@@H](c5ncccc5Cl)N4)cn23)CC1 (racemic) [Compound I-149]	1.6

P = Cc1cccnc1[C@@H]1CCC[C@H](c2nc3cccc(N4CCN(C)CC4)n3c2Cl)N1 [Compound I-146]
Q = CN1CCN(c2cccc3nc([C@@H]4CCC[C@H](c5ncccc5Cl)N4)cn23)CC1 (single isomer, unassigned) [Compound I-189]
Look at P and Q . Which one has the lower recorded Kp uu number? Give the label of your selection.
P
(P: 0.18, Q: 0.99)

---

# assay-protocol: Fraction of drug unbound to brain proteins, mouse
# Type: in vitro ADME
# stated-conditions: Mouse brain proteins (Table 10); read-out: Fu (b) %
readout-kind: fraction unbound

CN1CCN(c2cccc3nc([C@H]4CCC[C@@H](c5ncccc5Cl)N4C)c(Cl)n23)CC1 [Compound I-115]	0.005

a = Cc1c([C@@H]2CCC[C@H](c3ncccc3Cl)N2)nc2cccc(N3CCN(C)CC3)n12 (stereo in doubt) [Compound I-193]
b = CCOCc1c([C@H]2CCC[C@@H](c3ncccc3Cl)N2C)nc2cccc(N3CCN(C)CC3)n12 [Compound I-117]
Which is greater in fraction unbound, the first item a or the second item b ? Give the label of your selection.
b
(b: 0.006, a: 0.004)

---

# assay-protocol: in vitro
# stated-conditions: human, Caco-2, pH 7.4
# Experimental: Example 28: Caco-2 Permeability Assay The goal of this assay was to evaluate the intestinal absorption potential of drug candidates using Caco-2 cell lines. 1. Prewarm Prewarm HBSS Buffer in 37° C. water bath 2. Sonicate Take compounds from −20° C., sonicate for a few minutes (no less than 1 minute) HBSS buffer with 0.3% DMSO and 5 μM LY: add 150 μL DMSO and 50 μL LY (5 mM) into 50 ml HBSS buffer (pH 7.4). […] 1. Papp values were calculated based on calculated concentrations. […]
Attribute: Papp A→B at 90 min, 10 μM

Cc1cccnc1[C@@H]1CCC[C@H](c2cn3c(-c4cccnc4)cccc3n2)N1C [Compound I-6]	10 to 30 ×10⁻⁶ cm/s
Cc1cccnc1[C@@H]1CCC[C@H](c2nc3cccc(N4CCN(C)CC4)n3c2Br)N1C [Compound I-17]	0.1 to 10 ×10⁻⁶ cm/s
CN1CCN(c2cccc3nc([C@H]4CCC[C@@H](c5ncccc5Cl)N4)cn23)CC12CC2 [Compound I-160]	10 to 30 ×10⁻⁶ cm/s
CCN1CCN(c2cccc3nc([C@H]4CCC[C@@H](c5ncccc5C)N4C)c(Cl)n23)CC1 [Compound I-88]	0.1 to 10 ×10⁻⁶ cm/s
Cc1cccnc1[C@@H]1CCC[C@H](c2cn3c(N4CCN(C)CC4)c(F)ccc3n2)N1C [Compound I-106]	0.1 to 10 ×10⁻⁶ cm/s
CN1CCN(c2cccc3nc([C@H]4CCC[C@@H](c5ncccc5C(F)(F)F)N4C)cn23)CC1 [Compound I-80]	0.1 to 10 ×10⁻⁶ cm/s

Tell me the measured Papp A→B at 90 min, 10 μM of Cc1cccnc1[C@@H]1CCC[C@H](c2cn3c(N4C5CCC4CN(C)C5)cccc3n2)N1 [Compound I-186] , please.
0.1 to 10 ×10⁻⁶ cm/s

Tell me the measured Papp A→B at 90 min, 10 μM of Cc1cccnc1[C@@H]1CCC[C@H](c2cn3c(N4CCN(CC(F)(F)F)CC4)cccc3n2)N1C [Compound I-14] , please.
10 to 30 ×10⁻⁶ cm/s

Tell me the measured Papp A→B at 90 min, 10 μM of CN1CCN(c2cccc3nc([C@H]4CCC[C@@H](c5ncccc5C5CC5)N4)cn23)CC1 [Compound I-179] , please.
0.1 to 10 ×10⁻⁶ cm/s

---

# assay-protocol: Fraction of drug unbound to plasma proteins, mouse
# Assay type: in vitro ADME
# stated-conditions: Mouse plasma proteins (Table 9); read-out: Fu (p) %
readout-kind: fraction unbound

Cc1cccnc1[C@@H]1CCC[C@H](c2nc3cccc(N4CCC(N(C)C)CC4)n3c2Cl)N1C	0.028
Cc1cccnc1[C@@H]1CCC[C@H](c2nc3cccc(N4CCN(C)CC4)n3c2Cl)N1	0.053
CN1CCN(c2cccc3nc([C@H]4CCC[C@@H](c5ncccc5Cl)N4)cn23)CC1 (racemic)	0.099

A = Cc1cccnc1[C@@H]1CCC[C@H](c2nc3cccc(N4CCN(C)CC4)n3c2Cl)N1C
B = Cc1cccnc1[C@@H]1CCC[C@H](c2nc3cccc(N4CCN(C(C)C)CC4)n3c2Br)N1C
C = Cc1cccnc1[C@@H]1CCC[C@H](c2cn3c(N4CCN(C)CC4)cccc3n2)N1
# rank_down: sort by fraction unbound, max first Thanks in advance for listing the labels in the requested order.
C, A, B
(C: 0.249, A: 0.054, B: 0.021)

---

# assay-protocol: MTD and pharmacokinetics and brain penetration after PO administration
# Format: in vivo, Male C57BL/6 Mice
# stated-conditions: male, C57BL/6; Mouse brain, single administration, D1-50 mg/kg PO; read-out: AUClast (b)
readout-kind: AUC(0-t) (ng·h/mL)
Give the number; ng·h/mL is assumed, so skip it.

Tell me the measured AUC(0-t) of CN1CCN(c2cccc3nc([C@H]4CCC[C@@H](c5ncccc5Cl)N4)cn23)CC1 (single isomer, unassigned) , please.
58600

---

# assay-protocol: Rat pharmacokinetics and brain penetration (IV and PO)
# Assay type: in vivo
# stated-conditions: male, SD, brain and plasma; Rat, 3 mg/kg IV; 10 mg/kg PO; read-out: Kp (brain/plasma drug concentration ratio)
readout-kind: Kp

Use these answered entries as a reference point.
CN1CCN(c2cccc3nc([C@H]4CCC[C@@H](c5ncccc5Cl)N4)cn23)CC1 (single isomer, unassigned) [Compound I-188]	5.65
CN1CCN(c2cccc3nc([C@H]4CCC[C@@H](c5ncccc5Cl)N4)cn23)CC1 (racemic) [Compound I-149]	8.4

A = Cc1cccnc1[C@@H]1CCC[C@H](c2nc3cccc(N4CCN(C)CC4)n3c2Cl)N1
B = CN1CCN(c2cccc3nc([C@@H]4CCC[C@H](c5ncccc5Cl)N4)cn23)CC1 (single isomer, unassigned)
Look at A and B . Which one has the lower recorded Kp number? Give the label of your selection.
A
(A: 1.82, B: 4.03)

---

# assay-protocol: Pharmacokinetics after intravenous or oral administration to dogs
# Assay type: in vivo
# stated-conditions: male, beagle, plasma; dog, IV: 1 mg/kg; read-out: Vss
readout-kind: Vd (L/kg)
Give the number; L/kg is assumed, so skip it.

Tell me the measured Vd of CN1CCN(c2cccc3nc([C@H]4CCC[C@@H](c5ncccc5Cl)N4)cn23)CC1 (single isomer, unassigned) [Compound I-188] , please.
39

---

# assay-protocol: in vitro
# stated-conditions: human, Caco-2, pH 7.4
readout-kind: Papp B→A at 90 min, 10 μM

Use these answered entries as a reference point.
CN1CCN(c2cccc3nc([C@H]4CCC[C@@H](c5ncccc5C5CC5)N4C)cn23)CC1	10 to 30 ×10⁻⁶ cm/s
CCOCc1c([C@H]2CCC[C@@H](c3ncccc3C)N2C)nc2cccc(N3CCN(CC)CC3)n12	10 to 30 ×10⁻⁶ cm/s
Cc1cccnc1[C@@H]1CCC[C@H](c2nc3cccc(N4CCN(C)CC4)n3c2COC(C)C)N1C	10 to 30 ×10⁻⁶ cm/s

Tell me the measured Papp B→A at 90 min, 10 μM of Cc1cccnc1[C@@H]1CCC[C@H](c2nc3ccccn3c2COC2CCN(C)CC2)N1C , please.
10 to 30 ×10⁻⁶ cm/s

Tell me the measured Papp B→A at 90 min, 10 μM of CN1CCN(c2cccc3nc([C@H]4CCC[C@@H](c5ncccc5C(F)(F)F)N4C)cn23)CC1 , please.
0.1 to 10 ×10⁻⁶ cm/s

Tell me the measured Papp B→A at 90 min, 10 μM of Cc1cccnc1[C@@H]1CCC[C@H](c2nc3cccc(N4CCN(C5CC5)CC4)n3c2Br)N1C , please.
0.1 to 10 ×10⁻⁶ cm/s

Tell me the measured Papp B→A at 90 min, 10 μM of Cc1cccnc1[C@@H]1CCC[C@H](c2nc3cccc(N4CCN(C)CC4)n3c2Cl)N1C(C)C , please.
0.1 to 10 ×10⁻⁶ cm/s

Value source: patent US10759796B2
